Test System: human DLL3 protein expressed on CHO-K1 recombinant cells (human DLL3 extracellular segment fused to EpCAM transmembrane and intracellular regions) (human) (UniProt Q9NYJ7)
Sequence (Q9NYJ7 other isoform, or with tags, fused parts or gaps limits assumed): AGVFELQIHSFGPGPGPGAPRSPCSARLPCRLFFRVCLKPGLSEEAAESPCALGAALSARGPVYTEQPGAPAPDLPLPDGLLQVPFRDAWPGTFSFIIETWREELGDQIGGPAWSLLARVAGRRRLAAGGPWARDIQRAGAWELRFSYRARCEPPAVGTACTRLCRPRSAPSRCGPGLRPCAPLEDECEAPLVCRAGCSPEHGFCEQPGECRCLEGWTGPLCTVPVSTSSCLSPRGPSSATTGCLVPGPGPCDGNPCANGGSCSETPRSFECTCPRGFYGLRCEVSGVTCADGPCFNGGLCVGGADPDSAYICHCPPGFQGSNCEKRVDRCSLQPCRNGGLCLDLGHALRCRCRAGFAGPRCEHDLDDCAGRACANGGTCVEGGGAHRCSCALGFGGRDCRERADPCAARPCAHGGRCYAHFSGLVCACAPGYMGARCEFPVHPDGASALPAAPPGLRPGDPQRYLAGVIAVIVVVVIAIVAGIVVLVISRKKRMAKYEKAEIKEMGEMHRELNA
Assay Name: FACS, CHO-K1 hDLL3 cells, 100 nM antibody
Value Type: MFI (MFI)
Answers are plain numbers, in MFI.

Binder	MFI, MFI
Hab009VL2aVH1-hFc (scFv, part only; not given: VL-VH linker and human IgG1 Fc, V domains shown, not shown: another chain or arm of the molecule; a dimerising Fc or GST; small tags and cut ends) VL: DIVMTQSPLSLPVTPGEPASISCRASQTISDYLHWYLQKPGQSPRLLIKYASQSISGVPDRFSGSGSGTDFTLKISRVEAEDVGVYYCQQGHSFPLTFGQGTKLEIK VH: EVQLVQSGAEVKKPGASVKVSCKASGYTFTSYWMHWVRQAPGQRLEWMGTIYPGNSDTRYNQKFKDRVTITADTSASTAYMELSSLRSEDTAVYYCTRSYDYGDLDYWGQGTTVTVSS	13100

Entry under review: Hab015VL4VH1b-hFc (scFv, part only; not given: VL-VH linker and human IgG1 Fc, V domains shown, not shown: another chain or arm of the molecule; a dimerising Fc or GST; small tags and cut ends) VL: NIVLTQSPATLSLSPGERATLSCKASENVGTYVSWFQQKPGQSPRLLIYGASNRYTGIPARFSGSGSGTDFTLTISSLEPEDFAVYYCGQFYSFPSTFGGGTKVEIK VH: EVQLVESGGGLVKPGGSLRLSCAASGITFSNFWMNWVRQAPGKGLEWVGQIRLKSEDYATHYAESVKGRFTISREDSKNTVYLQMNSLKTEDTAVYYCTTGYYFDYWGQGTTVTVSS . Reported MFI?
11800
